experiment: Intrinsic clearance in rat hepatocytes assessed per million of cells; assay type: ADME, cell-based, Hepatocyte; details: read-out: CLH
observable: hepatocyte CLint (µL/min/1e6 cells)
// note: answer is a bare numeric in µL/min/1e6 cells

Record `NC1(C(=O)NCc2ccc(Cl)cc2)CCN(c2ncnc3[nH]ccc23)CC1` . Reported hepatocyte CLint: 19

* * *

Below, each entry is listed alongside its reported logD.
assay: physchem; details: octanol/water

Some entries whose results are on file:
> print(dat)
                                   molecule  observable  result
1  C[C@H](NC(=O)C1(N)CCN(c2ncnc3[nH]ccc23)CC1)c1ccc(Cl)cc1        logD     2.7
2  CN(C)CCCC(NC(=O)C1(N)CCN(c2ncnc3[nH]ccc23)CC1)c1ccc(Cl)cc1 (racemic)        logD     1.4
3  CN(C)C(=O)CC(NC(=O)C1(N)CCN(c2ncnc3[nH]ccc23)CC1)c1ccc(Cl)cc1 (racemic)        logD     2.4

Then there is this molecule:
Record CC(NC(=O)C1(N)CCN(c2ncnc3[nH]ccc23)CC1)c1ccc(Cl)cc1 (racemic) . Reported logD: 2.7
